Recorded measurements of melting point, one per entry

CCOC(=S)c1cc(Cl)c(C)c(-c2cc(C)no2)c1C | 79 to 82 °C
O=[N+]([O-])c1ccc(OCCCN2CCC(C(O)(c3ccc(F)cc3)c3ccc(F)cc3)CC2)cc1 | 93.5 to 94.5 °C
CCCCCCCCCCCCCCCCS(=O)(=O)Nc1cccc(C(C)=O)c1 | 95.5 to 100 °C
CSc1ccc(-c2cnn(Cc3ccccc3)c(=O)c2Br)cc1 | 115 to 118 °C
OC1CSC(Oc2ccc(-c3ccc(OC(F)(F)F)cc3)nc2)C(O)C1O (configuration not stated) | 184 to 186 °C
Cc1ccc(Cn2c(NC3CCN(CC#N)CC3)nc3ccccc32)o1 | 177 °C
CCCc1c(OCCCCCOc2ccc(C(C)=O)cc2CCC(=O)O)ccc2c1OCCC2=O | 115 to 118 °C
Cc1ccc(Cl)c(N)c1C(N)=O | 124 to 128 °C
Cn1cc(-c2ccccc2)c(=O)c(-c2cccc(C(=O)O)c2)c1 | 265 to 267 °C
CCCCOc1ccc([N+](=O)[O-])c(CO)c1 | 47 to 49 °C

(Q) Data request, read-out melting point, for "O=Cc1ccc(OCc2ccccc2)c(CCl)n1"
(A) 72 to 73 °C

(Q) Data request, read-out melting point, for "CS(=O)(=O)c1ccc(-c2cnn(Cc3ccccc3)c(=O)c2-c2ccc(F)c(Cl)c2)cc1"
(A) 134 to 136 °C

(Q) Data request, read-out melting point, for CC(C)c1cc(CCC(=O)OCC(C)(C)C2OCC3(CO2)COC(C(C)(C)COC(=O)CCc2cc(C(C)C)c(O)c(C(C)(C)C)c2)OC3)cc(C(C)(C)C)c1O (configuration not stated)
(A) 47 to 57 °C

(Q) Data request, read-out melting point, for "CC(=O)Nc1nc(N2CCc3ccccc3CC2)c([N+](=O)[O-])c(=O)[nH]1"
(A) > 200 °C

(Q) Data request, read-out melting point, for "CC(C)Cn1c(C(=O)OC(C)(C)C)c(-c2ccccc2)c2cc(OCc3ccccc3)ccc2c1=O"
(A) 138 to 139 °C

(Q) Data request, read-out melting point, for N#CC1=C(C2CCN(C(=O)c3ccccc3)CC2)Nc2n[nH]cc2C1c1cccc2nonc12 (configuration not stated)
(A) 228 °C

(Q) Data request, read-out melting point, for CCOC(=O)CCCC1Sc2ccccc2NC1=O (configuration not stated)
(A) 78 to 79 °C
